We begin with a simple list: items and their reported % max inhibition of shedding.
# SYSTEM_UNDER_TEST: T1, MICA*008 on MEL-JUSO cells (human, UniProt Q29983 24-317)
# T1 chain: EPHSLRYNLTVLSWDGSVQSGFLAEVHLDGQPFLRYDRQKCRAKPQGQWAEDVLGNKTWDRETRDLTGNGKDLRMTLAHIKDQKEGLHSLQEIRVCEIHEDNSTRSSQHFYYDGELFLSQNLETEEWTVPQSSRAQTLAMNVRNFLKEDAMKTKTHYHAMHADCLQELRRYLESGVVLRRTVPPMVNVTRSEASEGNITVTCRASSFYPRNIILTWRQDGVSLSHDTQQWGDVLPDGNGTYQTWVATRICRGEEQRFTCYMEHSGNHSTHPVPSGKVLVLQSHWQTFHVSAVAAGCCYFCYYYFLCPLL
# ASSAY_PROCEDURE: cell-based or functional assay

// known answers, use as guide
>  <BINDER>
32D2 (antibody, V domains shown, Mouse hybridoma antibody; constant regions differ by assay) VH: DVHLVESGGGLVQPGGSRKLSCAASGFTFNTFGMNWVRQAPEKGLEWVAYINSGSNTIYYADTVKGRFTISRDNPKNTLFLQMTSLRSEDTAMYYCTRWEPVTGGFSYWGQGTLVTVSA VL: QIVLTQSPAFKSSSLGERVTMTCTASSSISSSYLHWYQQKPGSSPKLWIYTTSNLASGVPARFSGSGSGTSYSLTISTMEAEDAATYYCHQHHRSPFTFGSGTKVEIK

>  <MEASURED_METRIC>
% max inhibition of shedding

>  <EXPERIMENTAL_RESULT>
71%

$$$$
>  <BINDER>
9C9.5.6 (antibody, V domains shown, Mouse hybridoma antibody; constant regions differ by assay) VH: QVQLKESGPGLVAPSQSLSITCTVSGFSLNGQGVNWVRQPPGKGLEWLGMIWGDGSTDYNSALKSRLSISKDNSRSQVFLKMNSLQTDDTARYYCARGAHYGKRWYFDVWGAGTTVTVSS VL: DIQMTQTTSSLSASLGDRVTISCSASQNINNYLNWYQQKPHGTVKLLIYYTSSLPSGVPSRFSGSGSGTDYSLTISNLEPEDIASYYCQQYSKLPPTFGGGTKVEIK

>  <MEASURED_METRIC>
% max inhibition of shedding

>  <EXPERIMENTAL_RESULT>
< 10%

$$$$

Per the record, 6F8.7 (antibody, V domains shown, Mouse hybridoma antibody; constant regions differ by assay) VH: DVQLQGSGPGLVKPSQSLSLTCSVTGYSITNDYYWNWIRQFPGNKLEWMGFISFGGSNNYNPSLKNRISITRDTSKNQFFLKLSSVTTEDTATYYCARYDGRGAWFAYWAQGTLVTVSA VL: DIQMTQSPASLSASVGETVTITCRASGNIHNYLAWYQQKQGKSPQLLVYDAITLADGVPSRFSGSGSGTQYSLKINSLQPEDFGNYYCQHFWSFPLTFGAGTKVEIK has % max inhibition of shedding of 47.5%

Where do these numbers come from? They come from patent US20200055939A1.
